Target: RAR alpha (Homo sapiens)
Sequence (P10276 183-417 limits assumed): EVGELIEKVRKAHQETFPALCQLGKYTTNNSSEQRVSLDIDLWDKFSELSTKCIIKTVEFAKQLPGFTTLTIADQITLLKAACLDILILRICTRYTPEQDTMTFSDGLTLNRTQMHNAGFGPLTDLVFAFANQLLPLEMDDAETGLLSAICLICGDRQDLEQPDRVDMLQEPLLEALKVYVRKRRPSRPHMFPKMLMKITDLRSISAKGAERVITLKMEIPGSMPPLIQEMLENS
Assay: Transactivation test (luciferase reporter, HeLa cells), RAR alpha
Details: HeLa stable transfectants, Schild regression against reference agonist 4-[2-(5,5,8,8-tetramethyl-5,6,7,8-tetrahydro-2-naphthyl)propenyl]benzoic acid; read-out: RAR alpha Kdapp
Please provide measured pKd for the entries that follow.
One number for each entry, as −log10 of the molar value.

Recorded pKd, per entry:
CC1(C)CCC(C)(C)c2c(OCc3ccc(F)cc3F)cc([Se]C#Cc3ccc(C(=O)O)cc3)cc21 = 8.70
CC(C)(C)c1ccc(COc2cc([Se]C#Cc3ccc(C(=O)O)cc3)cc3c2C(C)(C)CCC3(C)C)cc1 = 7.82

// for each compound below, give its pKd
1. CC1(C)CCC(C)(C)c2c(OCc3ccc(F)c(F)c3)cc([Se]C#Cc3ccc(C(=O)O)cc3)cc21
2. Cc1cccc(COc2cc([Se]C#Cc3ccc(C(=O)O)cc3)cc3c2C(C)(C)CCC3(C)C)c1
3. CC1(C)CCC(C)(C)c2c(OCc3cccc(F)c3)cc([Se]C#Cc3ccc(C(=O)O)cc3)cc21
4. CC1(C)CCC(C)(C)c2c(OCc3ccc(F)cc3)cc([Se]C#Cc3ccc(C(=O)O)cc3)cc21

Data returned:
1. 8.70
2. 7.52
3. 8.10
4. 8.10
